Target: IL-4 (Homo sapiens, UniProt P05112 P05112:25-153)
Sequence (P05112 25-153, one chain of several): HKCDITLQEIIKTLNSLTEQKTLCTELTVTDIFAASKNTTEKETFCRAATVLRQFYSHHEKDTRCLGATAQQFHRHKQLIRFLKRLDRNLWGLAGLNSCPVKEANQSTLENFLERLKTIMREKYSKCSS
Experiment: filter; truncate
Settings: tags: R&D Systems
Exercise: for every item that follows, state its recorded pKd.
Scale: pKd equals -log10([C]), with [C] in mol/L.

Kindly indicate its recorded pKd. Item: GGGAAACGGCUGUAACAAACAAGGUGGGGGGCCACACA (ssRNA, 2'-F all C and U) [IL-4 2'F-9 truncate]
7.74

Kindly indicate its recorded pKd. Item: IL-4 2'NH2-29 truncate (ssRNA, 2'-NH2 all C and U) RNA: GGGACGCUCAAGAGCUGGUGAGCCACGUAUACGGCCUUAGGGGCUUGGGCG
8.00
